Target: T1, Histidine-tagged human 4-1BB protein (h4-1BB-His) (human, UniProt Q07011 24-186)
T1 construct: not shown: histidine tag
Assay: SPR (Biacore T200), antibody on Protein A chip, h4-1BB-His injected;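 also: dissociation phase followed for 300 s, Kd derived as koff divided by kon from the kinetic fit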
Please provide measured kon for the entries that follow.

Examples with their reported kon follow.
1C4-H2K2-IgG4 (antibody, V domains shown, humanized) VH: QVQMVQSGAEVKKPGASVKLSCKASGFTFSSSYINWLRQAPGQSLEWIGWIFAGTGGTYYNQKFTGRVQITRDTSASTAYMELSSLRSEDTAIYYCARHSPRATLFDFWGQGTTLTVSS VL: EIVLTQSPATLSLSPGERATLSCRASSSVNHMHWYQQKPGQAPRALIYATSNLASGIPARFSGSGSGTSFTLTISSLEPEDFATYYCQQWSSNPYTFGGGTKLEIK: 25800 M⁻¹ s⁻¹
6A5-H3K2-IgG2 (antibody, V domains shown, humanized) VH: QVQLVQSGAEVKKPGSSVKLSCKASGYTFSSYWINWVKQAPGQGLEWIGNIYPSDSYTNYNQKFKDKATLTVDKSTSTAYMELSSLRSEDTAVYYCTRTWEFYYDSVFDYWGQGTTLTVSS VL: DIQMTQSPSSLSASLGERVTITCKASQDINSYLSWYQQKPGKAPKTLIYRANRLVDGVPSRFSGSGSGQDFTLTISSLQPEDIATYYCLQYDELPPTFGGGTKVEIK: 2.05e+06 M⁻¹ s⁻¹
5F9-H1K2-IgG4 (antibody, V domains shown, humanized; also called 30-5F9-H1K2-IgG4) VH: QVQLQESGPGLVKPSETLSLTCTVSGFSLTTYDISWVRQPPGKGLEWIGVIWTGGGTNYNSSFMSRVTISKDTSKNQVSLKLSSVTAADTAVYYCERVDYWGQGTTVTVSS VL: DVVMTQSPLSLPVTLGQPASISCRSSQSLVHSNGNTYLHWFQQRPGQSPKLLIYKVSNRFSGVPDRFSGSGSGTAFTFKISRVEAEDVGVYYCSQNTHVPWTFGGGTKVEIK: 205000 M⁻¹ s⁻¹
16-1C4-mHvKv-IgG4 (antibody, V domains shown) VH: QGQMQQSGAELVKPGASVKLSCKTSGFTFSSSYINWLKQKPGQSLEWIAWIFAGTGGTYYNQKFTGKAQLTVDTSSGTAYMQFSSLTTEDSAIYYCARHSPRATLFDFWGQGTTLTVSS VL: QIVLSQSPAILSASPGEKVTMTCRASSSVNHMHWYQQRTGFSPKAWIYATSNLASGVPARFSGSGSGTSYSLTISRVEAEDAATYYCQQWSSNPYTFGGGTKLEIK: 24400 M⁻¹ s⁻¹
1C4-H1K3-IgG4 (antibody, V domains shown, humanized) VH: QVQMVQSGAEVKKPGASVKLSCKASGFTFSSSYINWLRQAPGQRLEWMGWIFAGTGGTYYNQKFTGRVTITRDTSASTAYMELSSLRSEDTAIYYCARHSPRATLFDFWGQGTTLTVSS VL: EIVLTQSPATLSLSPGERATMSCRASSSVNHMHWYQQKPGFSPRAWIYATSNLASGIPARFSGSGSGTSFTLTISSLEPEDFATYYCQQWSSNPYTFGGGTKLEIK: 28500 M⁻¹ s⁻¹

Give kon for each listed item.
1. 1C4-H2K1-IgG4 (antibody, V domains shown, humanized) VH: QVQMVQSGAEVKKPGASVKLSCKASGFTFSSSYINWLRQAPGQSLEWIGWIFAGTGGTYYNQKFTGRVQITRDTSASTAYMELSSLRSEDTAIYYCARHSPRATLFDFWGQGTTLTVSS VL: EIVLTQSPATLSLSPGERATLSCRASSSVNHMHWYQQKPGQAPRALIYATSNLASGIPARFSGSGSGTSFTLTISSLEPEDFAVYYCQQWSSNPYTFGGGTKLEIK
2. 56-2A6-mHvKv-IgG2 (antibody, V domains shown) VH: QIQLVQSGPELKKPGETVKISCKASGYTFTNYGMNWVKQAPGKGFKWMGWINTYTGEPTYADDFKGRFAFSLEISASTAYLQINNLKNEDTATYFCARRDYLGAMDYWGQGTSVTVSS VL: ENVLTQSPAIMSASPGEKVTMTCRASSSVSSSYLHWYQQKSGASPKLWIYSTSNLASGVPARFSGSGSGTSYSLTISSVEAEDAATYYCQQYSAYLYTFGGGTKLEIK
3. 1C4-H1K4-IgG4 (antibody, V domains shown, humanized) VH: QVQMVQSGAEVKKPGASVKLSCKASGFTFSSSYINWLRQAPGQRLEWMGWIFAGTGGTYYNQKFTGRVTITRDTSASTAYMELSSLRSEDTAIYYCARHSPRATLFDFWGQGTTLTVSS VL: EIVLTQSPATLSASPGERVTMSCRASSSVNHMHWYQQRPGFSPRAWIYATSNLASGIPARFSGSGSGTSYSLTISSLEPEDFATYYCQQWSSNPYTFGGGTKLEIK
4. 61-6A7-mHvKv-IgG2 (antibody, V domains shown) VH: EVQLQQSGAELVRPGALVKLSCKASGFNIKDYYMHWVKRRPEQGLEWIGWIDPENGNTIYDPKFQDKASITADTSSNTAYLQLSSLTSEDTAVYYCAEGLPWYFDYWGQGTTLTVSS VL: QIILTQSPALMSASPGEKVTMTCSASSSVSDMNWYQQKPRSSPTPWIYLTSNLSSGVPDRFSGSGSGTSYSLTISSMEAEDAATYYCQQWSGNPLTFGAGTRLELK
5. 6A5-H3K1-IgG2 (antibody, V domains shown, humanized) VH: QVQLVQSGAEVKKPGSSVKLSCKASGYTFSSYWINWVKQAPGQGLEWIGNIYPSDSYTNYNQKFKDKATLTVDKSTSTAYMELSSLRSEDTAVYYCTRTWEFYYDSVFDYWGQGTTLTVSS VL: DIQMTQSPSSLSASLGERVTITCKASQDINSYLSWYQQKPGKAPKLLIYRANRLVDGVPSRFSGSGSGQDFTLTISSLQPEDIATYYCLQYDELPPTFGGGTKVEIK
6. 1C4-H4K1-IgG4 (antibody, V domains shown, humanized) VH: QGQMVQSGAEVKKPGASVKLSCKTSGFTFSSSYINWLRQAPGQSLEWIAWIFAGTGGTYYNQKFTGRAQLTVDTSASTAYMELSSLRSEDTAIYYCARHSPRATLFDFWGQGTTLTVSS VL: EIVLTQSPATLSLSPGERATLSCRASSSVNHMHWYQQKPGQAPRALIYATSNLASGIPARFSGSGSGTSFTLTISSLEPEDFAVYYCQQWSSNPYTFGGGTKLEIK

1. 25900 M⁻¹ s⁻¹
2. 101000 M⁻¹ s⁻¹
3. 25700 M⁻¹ s⁻¹
4. 1.43e+06 M⁻¹ s⁻¹
5. 650000 M⁻¹ s⁻¹
6. 28400 M⁻¹ s⁻¹
